Test: Cochleate formation by light microscopy
Format: physicochemical
Design: key: or above (E!); excellent (E); good (G); poor (P); none (N)
Settings: DMPE:TOCL 75:25; 1:10 lipid to polymer ratio
observed_property: Cochleate formation

compound	observed_property	recorded_value
CCCCCCCCCCCC(=O)N[C@@H](CCCCN)C(=O)NCCCCCCCC(=O)N[C@@H](CCCCN)C(=O)NCCCCCCCC(=O)N[C@@H](CCCCN)C(=O)NCCCCCCCC(=O)N[C@@H](CCCCN)C(=O)NCCCCCCCC(=O)N[C@@H](CCCCN)C(=O)NCCCCCCCC(=O)N[C@@H](CCCCN)C(N)=O [C12K-5α8, C12K(NC8K)5NH2]	Cochleate formation	P
CCCCCCCCCCCC(=O)NC(CCCCN)C(=O)NCCCCCCCC(=O)NC(CCCCN)C(=O)NCCCCCCCC(=O)NC(CCCCN)C(=O)NCCCCCCCC(=O)NC(CCCCN)C(=O)NCCCCCCCC(=O)NC(CCCCN)C(=O)NCCCCCCCC(=O)NC(CCCCN)C(=O)NCCCCCCCC(=O)NC(CCCCN)C(=O)NCCCCCCCC(=O)NC(CCCCN)C(=O)NCCCCCCCC(=O)NC(CCCCN)C(N)=O (stereo not drawn) [C12K-8α8, C12K(NC8K)8NH2]	Cochleate formation	E
CCCCCCCCCCCC(=O)NC(CCCCN)C(=O)NCCCCCCCC(=O)NC(CCCCN)C(=O)NCCCCCCCC(=O)NC(CCCCN)C(=O)NCCCCCCCC(=O)NC(CCCCN)C(=O)NCCCCCCCC(=O)NC(CCCCN)C(=O)NCCCCCCCC(=O)NC(CCCCN)C(=O)NCCCCCCCC(=O)NC(CCCCN)C(=O)NCCCCCCCC(=O)NC(CCCCN)C(=O)NCCCCCCCC(=O)NC(CCCCN)C(=O)NCCCCCCCC(=O)NC(CCCCN)C(=O)NCCCCCCCC(=O)NC(CCCCN)C(=O)NCCCCCCCC(=O)NC(CCCCN)C(N)=O (stereo not drawn) [C12K-11α8, C12K(NC8K)11NH2]	Cochleate formation	G
CCCCCCCCCCCC(=O)NC(CCCCN)C(=O)NCCCCCCCC(=O)NC(CCCCN)C(=O)NCCCCCCCC(=O)NC(CCCCN)C(=O)NCCCCCCCC(=O)NC(CCCCN)C(=O)NCCCCCCCC(=O)NC(CCCCN)C(=O)NCCCCCCCC(=O)NC(CCCCN)C(=O)NCCCCCCCC(=O)NC(CCCCN)C(=O)NCCCCCCCC(=O)NC(CCCCN)C(=O)NCCCCCCCC(=O)NC(CCCCN)C(=O)NCCCCCCCC(=O)NC(CCCCN)C(N)=O (stereo not drawn) [C12K-9α8, C12K(NC8K)9NH2]	Cochleate formation	E

Alright, here's another compound for you.
Query: Please supply the value of reported Cochleate formation for the item CCCCCCCCCCCC(=O)NC(CCCCN)C(=O)NCCCCCCCC(=O)NC(CCCCN)C(=O)NCCCCCCCC(=O)NC(CCCCN)C(=O)NCCCCCCCC(=O)NC(CCCCN)C(=O)NCCCCCCCC(=O)NC(CCCCN)C(=O)NCCCCCCCC(=O)NC(CCCCN)C(=O)NCCCCCCCC(=O)NC(CCCCN)C(=O)NCCCCCCCC(=O)NC(CCCCN)C(N)=O (stereo not drawn) [C12K-7α8, C12K(NC8K)7NH2]
Result: E

====

Test system: E. coli 14384
Assay: Antibiotic MIC / chemo-sensitization checkerboard with OAK, E. coli 14384
Assay type: cell-based
Conditions: +[…] C12K-7α8 (⅓ MIC)
Quick reference: Antibiotic MIC in presence of OAK of the listed items.

Solved entries:
smiles_str	observed_property	recorded_value
CO[C@H]1/C=C/O[C@@]2(C)Oc3c(C)c(O)c4c(O)c(c(/C=N/N5CCN(C)CC5)c(O)c4c3C2=O)NC(=O)/C(C)=C\C=C\[C@H](C)[C@H](O)[C@@H](C)[C@@H](O)[C@@H](C)[C@H](OC(C)=O)[C@@H]1C	Antibiotic MIC in presence of OAK	0.06 to 0.13 µg/mL
Cc1onc(-c2ccccc2)c1C(=O)N[C@@H]1C(=O)N2[C@@H]1SC(C)(C)[C@@H]2C(=O)O	Antibiotic MIC in presence of OAK	>512 µg/mL
CC1(C)S[C@@H]2[C@H](NC(=O)Cc3ccccc3)C(=O)N2[C@H]1C(=O)O	Antibiotic MIC in presence of OAK	>512 µg/mL
CCN1CCN(C(=O)N[C@@H](C(=O)N[C@@H]2C(=O)N3[C@@H]2SC(C)(C)[C@@H]3C(=O)O)c2ccccc2)C(=O)C1=O	Antibiotic MIC in presence of OAK	256 to 512 µg/mL

Alright, here's another compound for you.
Query: Please supply the value of reported Antibiotic MIC in presence of OAK for the item CC[C@H]1OC(=O)[C@H](C)[C@@H](O[C@H]2C[C@@](C)(OC)[C@@H](O)[C@H](C)O2)[C@H](C)[C@@H](O[C@@H]2O[C@H](C)C[C@H](N(C)C)[C@H]2O)[C@](C)(O)C[C@@H](C)C(=O)[C@H](C)[C@@H](O)[C@]1(C)O
Result: 16 µg/mL

====

Experiment: Cochleate formation by light microscopy
Format: physicochemical
Set-up: key: or above (E!); excellent (E); good (G); poor (P); none (N)
Conditions: POPE:DOPG 75:25; 1:10 lipid to polymer ratio

compound	Cochleate formation
CCCCCCCCCCCC(=O)NC(CCCCN)C(=O)NCCCCCCCC(=O)NC(CCCCN)C(=O)NCCCCCCCC(=O)NC(CCCCN)C(=O)NCCCCCCCC(=O)NC(CCCCN)C(=O)NCCCCCCCC(=O)NC(CCCCN)C(=O)NCCCCCCCC(=O)NC(CCCCN)C(=O)NCCCCCCCC(=O)NC(CCCCN)C(=O)NCCCCCCCC(=O)NC(CCCCN)C(=O)NCCCCCCCC(=O)NC(CCCCN)C(=O)NCCCCCCCC(=O)NC(CCCCN)C(=O)NCCCCCCCC(=O)NC(CCCCN)C(=O)NCCCCCCCC(=O)NC(CCCCN)C(N)=O (stereo not drawn) [C12K-11α8, C12K(NC8K)11NH2]	P
CCCCCCCCCCCC(=O)NC(CCCCN)C(=O)NCCCCCCCC(=O)NC(CCCCN)C(=O)NCCCCCCCC(=O)NC(CCCCN)C(=O)NCCCCCCCC(=O)NC(CCCCN)C(=O)NCCCCCCCC(=O)NC(CCCCN)C(=O)NCCCCCCCC(=O)NC(CCCCN)C(=O)NCCCCCCCC(=O)NC(CCCCN)C(=O)NCCCCCCCC(=O)NC(CCCCN)C(N)=O (stereo not drawn) [C12K-7α8, C12K(NC8K)7NH2]	N
CCCCCCCCCCCC(=O)NC(CCCCN)C(=O)NCCCCCCCC(=O)NC(CCCCN)C(=O)NCCCCCCCC(=O)NC(CCCCN)C(=O)NCCCCCCCC(=O)NC(CCCCN)C(=O)NCCCCCCCC(=O)NC(CCCCN)C(=O)NCCCCCCCC(=O)NC(CCCCN)C(=O)NCCCCCCCC(=O)NC(CCCCN)C(=O)NCCCCCCCC(=O)NC(CCCCN)C(=O)NCCCCCCCC(=O)NC(CCCCN)C(=O)NCCCCCCCC(=O)NC(CCCCN)C(N)=O (stereo not drawn) [C12K-9α8, C12K(NC8K)9NH2]	G

====

Test: Cochleate formation by light microscopy
Type: physicochemical
Set-up: key: or above (E!); excellent (E); good (G); poor (P); none (N)
Conditions: POPC:TOCL 75:25; 1:10 lipid to polymer ratio

molecule	Cochleate formation
CCCCCCCCCCCC(=O)N[C@@H](CCCCN)C(=O)NCCCCCCCC(=O)N[C@@H](CCCCN)C(=O)NCCCCCCCC(=O)N[C@@H](CCCCN)C(=O)NCCCCCCCC(=O)N[C@@H](CCCCN)C(=O)NCCCCCCCC(=O)N[C@@H](CCCCN)C(=O)NCCCCCCCC(=O)N[C@@H](CCCCN)C(N)=O [C12K-5α8, C12K(NC8K)5NH2]	P
CCCCCCCCCCCC(=O)NC(CCCCN)C(=O)NCCCCCCCC(=O)NC(CCCCN)C(=O)NCCCCCCCC(=O)NC(CCCCN)C(=O)NCCCCCCCC(=O)NC(CCCCN)C(=O)NCCCCCCCC(=O)NC(CCCCN)C(=O)NCCCCCCCC(=O)NC(CCCCN)C(=O)NCCCCCCCC(=O)NC(CCCCN)C(=O)NCCCCCCCC(=O)NC(CCCCN)C(=O)NCCCCCCCC(=O)NC(CCCCN)C(=O)NCCCCCCCC(=O)NC(CCCCN)C(=O)NCCCCCCCC(=O)NC(CCCCN)C(=O)NCCCCCCCC(=O)NC(CCCCN)C(N)=O (stereo not drawn) [C12K-11α8, C12K(NC8K)11NH2]	P
CCCCCCCCCCCC(=O)NC(CCCCN)C(=O)NCCCCCCCC(=O)NC(CCCCN)C(=O)NCCCCCCCC(=O)NC(CCCCN)C(=O)NCCCCCCCC(=O)NC(CCCCN)C(=O)NCCCCCCCC(=O)NC(CCCCN)C(=O)NCCCCCCCC(=O)NC(CCCCN)C(=O)NCCCCCCCC(=O)NC(CCCCN)C(=O)NCCCCCCCC(=O)NC(CCCCN)C(N)=O (stereo not drawn) [C12K-7α8, C12K(NC8K)7NH2]	P
CCCCCCCCCCCC(=O)NC(CCCCN)C(=O)NCCCCCCCC(=O)NC(CCCCN)C(=O)NCCCCCCCC(=O)NC(CCCCN)C(=O)NCCCCCCCC(=O)NC(CCCCN)C(=O)NCCCCCCCC(=O)NC(CCCCN)C(=O)NCCCCCCCC(=O)NC(CCCCN)C(=O)NCCCCCCCC(=O)NC(CCCCN)C(=O)NCCCCCCCC(=O)NC(CCCCN)C(=O)NCCCCCCCC(=O)NC(CCCCN)C(=O)NCCCCCCCC(=O)NC(CCCCN)C(N)=O (stereo not drawn) [C12K-9α8, C12K(NC8K)9NH2]	N
